Test: yeast display, Sf9 membrane polyspecificity reagent, FACS + sequencing; frameworks hold sequencing errors
measured.quantity: polyreactivity (PSR sort gate)

QLQLVESGGGLVQAGGSLRLSCAASGIIFRYNTKGSYIQAPGKESELVAAIRTTGGSTYYADSVKGRFTISRDNAKNTVYLQMNSLKPEDPAVYYCAAVGFGRQGQEDYWGHGTQVTVSS ... low polyreactivity
QVQLVESGGGLVQAGGSLRLSCAASGRIFPAYAMGWYRQAPGKERELVAAITWTGGRTYYADSVKGRFTISRDNAKNSFYLQMNILKPEDTAVYYCAKAPARSRGYEYWGQGTQVTVSS ... low polyreactivity
QVQLVESGGGLVQAGGSLRLSCAASGRIFFRNAMGWYRQAPGKERELVAAITWNGGSTYYADSVKGRFTISRDIAKNTVYLQMNSLKPEDTAVYYCNKAGVSYRSQYYYWGQGTQVTVSS ... high polyreactivity
QVQLVESGGGLVQAGGSLRLSCAASGITFKYYAMGWYRQAPGKERELVAAITRGGSTYYADSVKRRFTISRDNAKTTVYLQMNSLKPVDTAVYYCNKARTYELYWGQGTQVTVSS ... high polyreactivity

====

Test: yeast display, Sf9 membrane polyspecificity reagent, FACS + sequencing; frameworks hold sequencing errors
measured.quantity: polyreactivity (PSR sort gate)

Here's what some known entries look like.
QVQLVESGGGLVQAGGSLRLSCAASGRIFSYAMGWYRQAPGKEREFVAAIRWSGGRTYYADSVKGRFTISRDNAKNTVYLQMNSLKPEDTAVYYCARQGYTLYRTRYRYDYWGQGTQVTVSS ... high polyreactivity
QVQLVESGGGLVQAGGSLRLSCAASGFIFYYYAMGWYRQAPGKEREFVAGISRSGGSTYYADSVKGRFTISRDHAKNTVNLLQNSLKTEDTAVYYCNARPLYHFWYYSGEEYGYWGQGTQVTVSS ... high polyreactivity
QVQLVESVGGLVQAGGSLRLICAASGRTFRGYAMGWYRQAPGKERELVAAISSSGGRTYYADSVKGRFTISRDNAKNTVYLQMNSLKPEDTAVYYCAAAVTLSPAQYGYWGQGTQVTVSS ... high polyreactivity
QVQLVESGGGLVHAGGSLRLSCAASGFTLHQYTMGWYRQAPGKERELVAAISDRGTRTYYADSVKGRFTISRDNAKNTVYLQMNSLKPEDPAVYYCAAYIAGVTGGSGYYYWGKGTQVTVSS ... high polyreactivity
QVQLVESGGGLDQAGGSLRLSCAASGSIFYPYAMRWYRQAPGKERELVAAISSGGGTNYADSVKGRFTISRDNAKNTVYLQMNSLKPEDTEVYYCNARTGTTWQGYEYDYWGQGTQVTVSS ... low polyreactivity

Prompt: Read the entry QVQLVESGGGLVQAGGSLRLSCAASGSIFDVYTMGWYRPAPGKERELVAAISWSGGSTFYADSVKGRFTISRDNAKNTVYLQMNSLKPEDTAVYYCAAELSLGNYWYDFWGQGTQVTVSS and write its reported polyreactivity (PSR sort gate).
Response: high polyreactivity

Prompt: Read the entry QVQLVESGGGLVQAGGSLRLSCAASGSTFRYYDMGWYRQAPGKERELVADISSGGSTYYADSVKGRFTISRDNAKNTVYLQMNSLKPEDTAVYYCAAAYLSWLFRYDYWGQGTQVTVSS and write its reported polyreactivity (PSR sort gate).
Response: high polyreactivity

Prompt: Read the entry QVQLVESGGGIVQAGGSLRLSCAASGLTFVNYAMGSYRQAPGKERELVAAITVNGGRTYYADSVKGRFTISRDNAKNTVYLQMFSLKPEDTAVYFCAAVYYRHGYTYSSDYWGQGTQVTVSS and write its reported polyreactivity (PSR sort gate).
Response: high polyreactivity

Prompt: Read the entry QVQLVESGGGLVQAGGSLRLSCSASGSIFPKNAMGWYRQAPGKERELVARISGSGGSTYYADSVKGRFTISRDNAKNTVYLQMNSLKPEDTAVYYCAKDQSKIYSSWSGYYYWGQGTQVTVSS and write its reported polyreactivity (PSR sort gate).
Response: low polyreactivity

====

Test: yeast display, Sf9 membrane polyspecificity reagent, FACS + sequencing; frameworks hold sequencing errors
measured.quantity: polyreactivity (PSR sort gate)

QVQLVESGGGLVQAGGSLRLSCAASGRTFFPYAMGWYRQAPGKERELVATIRYRGGSTSYADSVKGRFTISRDNAKNTVYLQMNSLKPEDTAVYYCAARLQRTPRVYSSYFEYDYWGHGTQVTVSS ... low polyreactivity
QVQLVESGGGLVQAGGSLRLSCAASGSIFRIYAMGWYRLEPGKERELVSGISKSVGSTYYADSVKGRFTISRDNAKNTVYLQMNSLKTEDTAVYYCNARRPSWGLDKYDYWGQGTQVTVSS ... low polyreactivity
QVQIVESGGGIVQAGGSLRLSCAASGIIFSGYVMGWYRQAPGKERQLVAAISSGGSKYYADSVKGRFTISRDNAKNTFYLQINSLKPEDTEVYYCAAAGYWTLGYGYWGQGTQVTVSS ... low polyreactivity

====

Assay: yeast display, Sf9 membrane polyspecificity reagent, FACS + sequencing; frameworks hold sequencing errors
measured.quantity: polyreactivity (PSR sort gate)

QVQLVESVGGLVQAGGSLRLSCAASGFIFSQYAMGWDRKAPGKERELVAAISKSGGRTYYADSVKGRFTFSRDNAKNTVYLQMNSLKPEDTAVYYCAAVSYSSYRYDYWGQGTQVTVSS ... high polyreactivity
QVQLVESGGGLVQAGGSLRLSCAASGSTFGYYARLWYRQAPGKERDLVAAISYSGGSTYYADSVKGRFTISRDNAKNTVYLQMNSLKPEDTAVYYCAARFTRQMYYWGQGTQVTVSS ... high polyreactivity
QVQLVESGGGLVQAGGSLRLSCAASGRIFGLYAMGWYRQAPGKERELVAAITSSTGSTYYADSVKGRFTISRDNAKNTVYLQMNSLKPEDTAVYYCAARRYGRNWHYDYWGQGTQVTVSS ... high polyreactivity

====

Experiment: yeast display, Sf9 membrane polyspecificity reagent, FACS + sequencing; frameworks hold sequencing errors
measured.quantity: polyreactivity (PSR sort gate)

QVQLVESGGGLVQAGGSLRLSCGASGSTFNWYTMGWYRQAPGKERELVDAISMNGGRTYYADSVKWRFTISRDKAKNTVYLQMNSLKPEDTAVYYCAAQISFYFAQYNLARFRGYYWGQGTQVTVSS ... high polyreactivity
QVQLVESGGGLVQAGGSLRLSCAASGRIFRSYAMGWYRQAPGKERELVASISWSGVSTSYADSVKGRFTISRDIAKNTVYLQMNSLKPEDTAVYFCAARSWYVGSGPFNYWGQGTQVTVSS ... high polyreactivity
QVQLVESGGGLVQAGGSLRLSCAASGSTFYEYAMGWYRQAPGKERELVAAISWSDVDTYYADSVKGRFTISRDNAKNTVYLQMNSLKPEDTAVYYCAAEWYHPYTQEMDYWGQGTQVTVSS ... high polyreactivity
QVQLVESGGGLVQAGGSLRLSCAASGLTFASYAMGWYRQSPGKERELVARISRSGGSTYYADSVKGRFTISRDNAKNTVYLQMNSLKPEDTAVYYCAARNSYGNWRYYYWGQGTQVTVSS ... high polyreactivity
QVQHVESGGGLVQAVGSLRLSCAASGIIFPRTAMGWYGQAPGKERELVAGISRSGGSTSYADSVKGRFTISRDNAKNTVYLQMNSRKPEDTAVYYCATRGHPFKKSYGSWGQGTQVTVSS ... high polyreactivity

Prompt: Read the entry QVQLVESGGGLVQAGGSLRLSSAASGSIFVKNARGWYRQAPGKVRELVARISFSGGSTYYADSVKGRFTISRDNAKNTVYLQMNSLKPEDTAVYYCAKTVLRTEYGWWIKFDYWGQVTQVTVSS and write its reported polyreactivity (PSR sort gate).
Response: low polyreactivity

Prompt: Read the entry QVQLVESAGGLVQAGGSLRLSCASSGFTFKANAMGWYRQAPGKERELVAAISRRGSSTYYADSVKGRFTISRDNAKNTVYLQMNSLKPEDTAVYYCNTKPRAGRTKLGYWGQGTQVTVSS and write its reported polyreactivity (PSR sort gate).
Response: high polyreactivity

Prompt: Read the entry QVQLVESGGGLVQAGGSLRLSCAASGFIFAYNIIGWSRHAPGTERELVADISGTGSTNYADSVKGRFTISRDNAKNTVYLQMNSLKPEDTAVYYCAAAKFDVSFWLYFWGQGTQVTVSS and write its reported polyreactivity (PSR sort gate).
Response: low polyreactivity

====

Assay: yeast display, Sf9 membrane polyspecificity reagent, FACS + sequencing; frameworks hold sequencing errors
measured.quantity: polyreactivity (PSR sort gate)

Here's what some known entries look like.
QVQLVASGGGLVQAGGSLRLSCAASGLIFYIYMGWYRQGPGKERELVAVISSSGNSTYYADSVKGRFTISRDNAKNTVYLQMNSLKQEDTAVSYCNASAYYPPSSSRYDYWGQGTQVTVSS ... low polyreactivity
QVQLVESGGGLVQAGGSLRLSCAASGGIFPGYAMGWYRQAPGKERELVAAISGSGSSTYYADSVKGRFTISRDNAKNTVYLQMNSLKPEDTAVYYCAVYYTRGYDYWGQGTQVTVSS ... high polyreactivity
QVQLVESGGGLVQAGGSLRLSCAASGGSFYPYAMGWYRQAPGKERELLAAISWSGDITYYADSVKGRFTISRDNAKNTVYLLINSLKPEDTAVYYCAAGRVVDKDPSYFREGDYWGQGTQVTVSS ... low polyreactivity
QVQLVESGGGLVQAGGSLRLSSAASGFTFKAYVMGWYRQAPGKERELVAASTRSGSSTYYADSVKGRFTISRDNGKNSVYLQMYSLKPEDTAVYYCAARYTQRPRRNYWGQVTQVTVSS ... high polyreactivity
QVQLVESGGGLVQAGGSLRLSCAASGRTFRSIAMGWYRKAPGKERELVAAITSSGGRTYYADSVKGRFTISRDNAKNTVYVQMNSLTPEDTAVYYCNAGRQHPPRYSSYDYWGQGTQVTVSS ... high polyreactivity
QVQLVESGGGLVQAGGSLRLSCAASGRIFPEYTMGWYRQAPGKERELVAAISKRGSSTNYADSVKGRFTISRDNAKNTVYLQMNSLKPEDTAVYYCAARGYTLSYVDMYYWGQGTQVIVSS ... high polyreactivity

Would you kindly look at the next entry?
Prompt: Read the entry QVQLVESGGGLVQAGGSLRLSCAASGFIFGYYAMGWYRQAPGKERELVAVISRGGGSTHYADSVKGRFTISRDNAKNTVYLQMNSLKPEDTAVYYCAAQLGRRSATYYYWGQGTQVTVSS and write its reported polyreactivity (PSR sort gate).
Response: high polyreactivity

meta.source: the nanobody polyreactivity screen of Harvey et al. (2022)
